Data provenance is patent US20230312605A1.

Measured log10 of EC50, listed per entry.
target: recombinant DYRK1A kinase (Homo sapiens (Human), UniProt Q13627); test: DYRK1A kinase assay (Ser/Thr 18 peptide Z-lyte FRET assay); conditions: recombinant DYRK1A 0.25 µg/mL, ATP 15 µM, Ser/Thr peptide 18 4 µM, one hour at room temperature; table head prints EC50, method says IC50
Values are log10 of EC50 in nM.

- molecule: "Cc1nc2ccc(-c3ccn4nc(N[C@@H]5CN(C)C[C@H]5F)ncc34)nc2n1CC(F)F [Compound 1902]"
  measure.name: "log10 of EC50"
  readout.number: 0.78
- molecule: "CO[C@H]1CC[C@@H](Nc2ncc3c(-c4cnc5nccn5c4)ccn3n2)CC1 [Compound 259]"
  measure.name: "log10 of EC50"
  readout.number: 0.85
- molecule: "Cc1cnc2ncc(-c3ccn4nc(NC5CCC(F)(F)CC5)ncc34)cn12 [Compound 398]"
  measure.name: "log10 of EC50"
  readout.number: 1.08
- molecule: "c1cn2cc(-c3ccn4nc(NC5CC6(COC6)C5)ncc34)cnc2n1 [Compound 282]"
  measure.name: "log10 of EC50"
  readout.number: 0.85
- molecule: "CC(=O)N[C@]1(C)C[C@@H](Nc2ncc3c(-c4ccc5ncccc5c4)ccn3n2)C1 [Compound 1980]"
  measure.name: "log10 of EC50"
  readout.number: 0.00

Exercise: Data request, read-out log10 of EC50, for COCCO[C@H]1CC[C@H](Nc2ncc3c(-c4ccc5nc(C)n(CC(F)F)c5n4)ccn3n2)CC1 [Compound 1118]
Solution: 0.70

Exercise: Data request, read-out log10 of EC50, for [2H]C([2H])([2H])O[C@H]1CC[C@@H](Nc2ncc3c(-c4cnc5nc(C)n(CC(F)F)c5c4)ccn3n2)CC1 [Compound 1876]
Solution: 0.30

Exercise: Data request, read-out log10 of EC50, for Cc1nc2ncc(-c3ccn4nc(NC5CCN(CC(F)F)CC5)ncc34)cc2n1CC(F)F [Compound 1882]
Solution: 0.60
